System: HT-29 cells
test summary: Inhibition of cell proliferation (MTS), HT-29 cells
Type: cell-based
test settings: Homo sapiens, HT-29, 72 h, HT-29 cells, 5000 cells/well, 72 h, MTS, absorbance 490 nm; read-out: HT29 IC50
Please respond with reported IC50 for every item in the list.
One number for each entry, in nM.

Worked set:
compound | IC50, nM
Cn1c(=O)c(F)c(Nc2ccc(I)cc2F)c2c(=O)n(CC(O)CO)nc(-c3cccc(NC(=O)C4CC4)c3)c21 (stereo not shown) | 112
C=CCn1nc(-c2cccc(NS(=O)(=O)C3CC3)c2)c2c(c(Nc3ccc(I)cc3F)c(F)c(=O)n2C)c1=O | 5.4

Parameter requested: IC50. Apply to each item below.
1. CCC(=O)Nc1cccc(-c2nn(C3CC3)c(=O)c3c(Nc4ccc(I)cc4F)c(F)c(=O)n(C)c23)c1
2. CC(C)n1nc(-c2cccc(NS(=O)(=O)C3CC3)c2)c2c(c(Nc3ccc(I)cc3F)c(F)c(=O)n2C)c1=O
3. CCC(=O)Nc1cccc(-c2nn(CC(O)CO)c(=O)c3c(Nc4ccc(I)cc4F)c(F)c(=O)n(C)c23)c1 (stereo not shown)
4. Cn1c(=O)c(F)c(Nc2ccc(I)cc2F)c2c(=O)n(CC(F)F)nc(-c3cccc(NS(=O)(=O)C4CC4)c3)c21

Result block:
13.7
31.5
315
7.7

---

Tested on: HT-29 cells
test summary: Inhibition of cell proliferation (MTS), HT-29 cells
Type: cell-based
test settings: Homo sapiens, HT-29, 72 h, HT-29 cells, 5000 cells/well, 72 h, MTS, absorbance 490 nm; read-out: HT29 IC50
measured parameter: IC50 (nM)
One number for each entry, in nM.

Worked set:
molecule | measured target | IC50 / nM
C=CCn1nc(-c2cccc(NS(C)(=O)=O)c2)c2c(c(Nc3ccc(Br)cc3F)c(F)c(=O)n2C)c1=O | HT-29 cells | 42.7
CCS(=O)(=O)Nc1cccc(-c2nn(C(C)C)c(=O)c3c(Nc4ccc(I)cc4F)c(F)c(=O)n(C)c23)c1 | HT-29 cells | 6.4
C=CCn1nc(-c2cccc(NC(C)=O)c2)c2c(c(Nc3ccc(I)cc3F)c(F)c(=O)n2C)c1=O | HT-29 cells | 6.4
CC(C)n1nc(-c2cccc(NS(=O)(=O)C(C)C)c2)c2c(c(Nc3ccc(I)cc3F)c(F)c(=O)n2C)c1=O | HT-29 cells | 152
Cn1c(=O)c(F)c(Nc2ccc(I)cc2F)c2c(=O)n(C3CC3)nc(-c3cccc(NS(C)(=O)=O)c3)c21 | HT-29 cells | 5.1
Cn1c(=O)c(F)c(Nc2ccc(I)cc2F)c2c(=O)n(CCF)nc(-c3cccc(NS(=O)(=O)C4CC4)c3)c21 | HT-29 cells | 4.2
CC(C)n1nc(-c2cccc(NC(=O)C3CC3)c2)c2c(c(Nc3ccc(I)cc3F)c(F)c(=O)n2C)c1=O | HT-29 cells | 192
Cn1c(=O)c(F)c(Nc2ccc(I)cc2F)c2c(=O)n(CC(O)CO)nc(-c3cccc(NS(C)(=O)=O)c3)c21 (centres unmarked) | HT-29 cells | 4.6
CCS(=O)(=O)Nc1cccc(-c2nn(CC(O)CO)c(=O)c3c(Nc4ccc(I)cc4F)c(F)c(=O)n(C)c23)c1 (centres unmarked) | HT-29 cells | 57.7
Cn1c(=O)c(F)c(Nc2ccc(I)cc2F)c2c(=O)n(CC(O)CO)nc(-c3cccc(NS(=O)(=O)C4CC4)c3)c21 (centres unmarked) | HT-29 cells | 24.2

Parameter requested: IC50. Apply to each item below.
1. C=CCn1nc(-c2cccc(NC(C)=O)c2)c2c(c(Nc3ccc(Br)cc3F)c(F)c(=O)n2C)c1=O
2. CN(c1cccc(-c2nn(C3CC3)c(=O)c3c(Nc4ccc(I)cc4F)c(F)c(=O)n(C)c23)c1)S(=O)(=O)C1CC1

Result block:
1: 427; 2: 11.7
